Tested on: Hck (UniProt P08631)
Sequence (P08631 whole entry, looked up): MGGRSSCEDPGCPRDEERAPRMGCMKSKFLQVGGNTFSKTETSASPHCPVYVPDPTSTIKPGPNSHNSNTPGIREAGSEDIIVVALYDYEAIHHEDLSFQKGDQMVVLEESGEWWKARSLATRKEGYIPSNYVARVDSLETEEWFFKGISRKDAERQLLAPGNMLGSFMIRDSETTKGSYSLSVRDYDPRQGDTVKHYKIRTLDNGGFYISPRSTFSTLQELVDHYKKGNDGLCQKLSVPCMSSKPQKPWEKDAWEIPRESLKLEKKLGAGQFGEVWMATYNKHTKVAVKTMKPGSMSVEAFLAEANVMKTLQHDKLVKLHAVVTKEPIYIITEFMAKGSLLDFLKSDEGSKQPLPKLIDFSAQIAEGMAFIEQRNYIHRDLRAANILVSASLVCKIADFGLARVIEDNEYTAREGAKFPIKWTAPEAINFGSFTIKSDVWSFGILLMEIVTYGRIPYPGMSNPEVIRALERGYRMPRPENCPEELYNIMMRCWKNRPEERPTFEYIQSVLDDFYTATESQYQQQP
Assay name: phosphorylation enrichment, bacterial display (enrichment ratio); higher = better substrate or ligand; peptides without Tyr show the background;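 note: 11-residue human phosphosite peptides and single-mutation variants displayed on the E. coli surface, counted by deep sequencing, each peptide's frequency after selection divided by its frequency in the unselected input library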;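 note: frequency after pTyr selection over input frequency; kinase dosed for 20-30% of maximal phosphorylation in three min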
Lab note: compare phosphorylation enrichment against 0.6. Equal or greater, write Y. Smaller, write N.

INSERT INTO measurements (sequence, tested_on, classification) VALUES
  ('YENGEYIVRQG [PRKG1_Y247_I249V]', 'Hck (UniProt P08631)', 'N');

Request: In plain terms: is recorded phosphorylation enrichment at least 0.6 for FQEPVYSVAFS [TBL1X_Y509_H504Y_YF] ?
Result: Y

Request: In plain terms: is recorded phosphorylation enrichment at least 0.6 for KRAIGYFSATS [FAM120A_Y327_YF] ?
Result: N

Request: In plain terms: is recorded phosphorylation enrichment at least 0.6 for RPYRPYIIRGM [LRP5_Y1531] ?
Result: Y

----------
System: c-Abl (mouse)
Assay name: phosphorylation enrichment, bacterial display (enrichment ratio); higher = better substrate or ligand; peptides without Tyr show the background
Parameter measured: phosphorylation enrichment
Just the number, please, no unit after it.

Worked cases, answers included:
INSERT INTO measurements (sequence, result_value) VALUES
  ('RPSRWYQFRVA [ANOS1_Y259]', 0.955),
  ('KKLHKYNTQFQ [PIK3R1_Y452_E451K]', 1.06),
  ('KKRSVYLKVLF [CC2D2A_Y683]', 0.706);

Request: Form field: reported phosphorylation enrichment of GGTTMYPGIAD [ACTC1_Y308]
Result: 0.561

Request: Form field: reported phosphorylation enrichment of IWIFHYAKGQP [MPZ_Y82_S78W]
Result: 1.09

Request: Form field: reported phosphorylation enrichment of PPTYRYERGSR [INPPL1_Y663]
Result: 0.61

----------
Tested on: Hck (UniProt P08631)
Assay name: phosphorylation enrichment, bacterial display (enrichment ratio); higher = better substrate or ligand; peptides without Tyr show the background
Lab note: compare phosphorylation enrichment against 1. Equal or greater, write true. Smaller, write false.

INSERT INTO results (sequence, classification) VALUES
  ('VHNLNYYKKTT [FGFR3_Y647_D646N]', 'false'),
  ('HNLDFYKMTTN [FGFR3_Y648_K650M_YF]', 'true'),
  ('ATVRPYRPYII [LRP5_Y1528_A1525V]', 'false'),
  ('KTTILHKLKLG [ARF1_Y35_Y35H]', 'false'),
  ('PPAPRYHHSAV [LZTR1_Y119]', 'false'),
  ('RGDCTYAPLLG [AR_Y269_M268T]', 'true');

Request: In plain terms: is recorded phosphorylation enrichment at least 1 for SKEPFYVRCIK [MYO1D_Y586_YF] ?
Result: false

Request: In plain terms: is recorded phosphorylation enrichment at least 1 for SCPANYFAFKI [FAM3D_Y65_P60S] ?
Result: true

Request: In plain terms: is recorded phosphorylation enrichment at least 1 for HESEIYGKVCY [CSRP3_Y57_C58G] ?
Result: true

----------
Test system: c-Abl (mouse)
Assay name: phosphorylation enrichment, bacterial display (enrichment ratio); higher = better substrate or ligand; peptides without Tyr show the background
Each record gets a class by phosphorylation enrichment: low band (below 0.5), middle band (0.5 to below 0.9), high band (0.9 or more)

// known answers, use as guide
INSERT INTO assay_data (sequence, tested_on, classification) VALUES
  ('DNAYQYMLTDR [MYH7_Y164]', 'c-Abl (mouse)', 'middle band'),
  ('MPPHICAITDT [MYH9_Y151_Y151C]', 'c-Abl (mouse)', 'high band');

Request: Into which category would you place INASGYRIGPA [ACSM1_Y477] ?
Result: low band

Request: Into which category would you place MGCVNYGAFIN [GLB1_Y485_R482C_YF] ?
Result: high band

Request: Into which category would you place NIKKEYAKMVQ [PMS2_Y181] ?
Result: low band

Request: Into which category would you place IEEGTYGVAYR [CDK11B_Y449_V452A] ?
Result: middle band

Request: Into which category would you place FDAHIYEGRVI [PRKCD_Y64] ?
Result: middle band

Request: Into which category would you place VHNLNYYKKTT [FGFR3_Y647_D646N] ?
Result: middle band
